Test system: Ax20 peptidase
Assay: Substrate specificity of recombinant Ax20 peptidase, cleavage by thin layer chromatography
Assay type: biochemical, Corynebacterium sp. Ax20
Design: key: (+++) indicating >80% cleavage of a 1 mM solution by 0.1 μg/ml peptidase during an incubation for 1 h; (++) indicates complete cleavage of a 1 mM solution by 1 μg/ml peptidase during an incubation for 1 h; (+) indicates partial cleavage (20-80%) of a 1 mM solution by 1 μg/ml peptidase during an incubation for 1 h; (−) indicating the absence of any cleavage
Conditions: 1 mM solution, 0.1 or 1 μg/ml peptidase, incubation 1 h
Peptide text beside a SMILES is read from it. * marks the point of attachment. Cbz = O=C(OCc1ccccc1)*
parameter: Cleavage

[[record]]
compound = "O=C(O)CNC(=O)OCc1ccccc1"
meas_value = "−"

[[record]]
compound = "C[C@H](NC(=O)OCc1ccccc1)C(=O)O"
meas_value = "−"

[[record]]
compound = "O=C(O)CNC(=O)CNC(=O)OCc1ccccc1 [Z-Gly-Gly] (Cbz-Gly-Gly-OH)"
meas_value = "−"

[[record]]
compound = "CC(N)C(=O)NC(C)C(=O)O (stereo not drawn)"
meas_value = "++"

[[record]]
compound = "CC(N)C(=O)NCC(=O)O (stereo not drawn)"
meas_value = "++"

